Starred links: 1 amine or outer side, 2 acyl side, 3 side chain; linkers in the order of their positions; H or OH if unused. Non-standard residues stand in square brackets, D forms with d. Residues, ends and D or L forms follow the SMILES beside them. *: point of attachment. γGlu = O=C(O)[CH](CCC(=O)[*:2])N[*:1]; Lauroyl = CCCCCCCCCCCC(=O)*
quantity kind: melting point

Recorded results for 3 molecules are shown here.
Nc1nc(O)c2c(n1)NCC(CCc1cc(C(=O)O)c[nH]1)C2 (centres undefined)
> 260 °C
O=C(c1cccs1)c1cccn1N1C(=O)c2ccccc2C1=O
165 to 166 °C
O=C(NCCc1ccc(OCc2ccccc2)c(OCc2ccccc2)c1CCc1cccc(OCc2ccccc2)c1)C(F)(F)F
142 to 144 °C

Exercise: Reported melting point, molecule Cc1[nH]n(-c2c(Cl)cc(C(F)(F)F)cc2Cl)c(=O)c1C=O : ____
Key: 195 to 197 °C

Exercise: Consider next the molecule CCCCCCCCCCCC(=O)NC(C)C(=O)NC(CCC(=O)NC(CCCCN)C(=O)O)C(=O)O (centres undefined) (Lauroyl-Ala-[γGlu]-Lys-OH; configuration not given here) in the same way.
Key: 180 to 186 °C

Exercise: Consider next the molecule Cn1cc(C(=O)NCCC2CCN(S(=O)(=O)NC(=O)NC3CCCCC3)CC2)c(=O)n(C)c1=O in the same way.
Key: 205 to 207 °C

Exercise: Consider next the molecule CN(C)S(=O)(=O)c1ccc(Br)cc1OC(F)(F)F in the same way.
Key: 55 to 58 °C

Exercise: Consider next the molecule Cc1nc2c([N+](=O)[O-])cc(S(=O)(=O)N(C)C)cc2n1C in the same way.
Key: 194 to 196 °C

Exercise: Consider next the molecule CC(=O)c1ccccc1Cc1ccccc1 in the same way.
Key: 42 to 43 °C

====

quantity kind: melting point

CC(c1ccc(C(=O)O)cc1)c1cc2cc(C(F)(F)F)ccc2n1S(=O)(=O)c1cccc(C(C)(C)C)c1 (racemic)
212 °C
COc1c(-c2cc3c(s2)C(O)CC(C)(C)C3)ccc2c(=O)c(C(=O)O)cn(C3CC3)c12 (centres undefined)
182 to 183 °C
CN(C)c1c(CS(=O)(=O)C2=NOC(C)(C)C2)c(C(F)(F)F)nn1-c1ccccc1
150 to 151 °C
CCCCC(CC)n1nnc2c(Nc3ccc(C(C)C)cc3Br)nc(C)cc21 (centres undefined)
73 to 74 °C
CCOC(=O)C(NC(C)=O)=C(c1ccc(F)cc1)c1ccc(F)cc1
200 to 201 °C
O=C(CCc1cc(C2CCCCC2)c(O)c(C2CCCCC2)c1)OCCCCCCOC(=O)CCc1cc(C2CCCCC2)c(O)c(C2CCCCC2)c1
113 to 115 °C

Exercise: Reported melting point, compound CN1CCc2c(Cl)ccc3c4c(n(c23)CC1)CCC4 : ____
Key: 138 to 140 °C

Exercise: Consider next the compound COc1cccc2c(O)c(C(=O)NCC(=O)O)ncc12 in the same way.
Key: 168 °C

Exercise: Consider next the compound Cc1nc(SCc2ccc(Cl)cc2)nc2c1CCCC2 in the same way.
Key: 48 °C

====

Quick list: melting point per entry.

COc1ccc(-c2c(-c3ccncc3)sc3nc(=O)cc(N)n23)cc1
267 to 271 °C
CSc1cnn(C(C)(C)C)c(=O)c1C
115 to 116 °C
Cc1cn(-c2cc(NC(=O)c3ccc(C)c(C#Cc4ccc(NC5CCC5)nn4)c3)cc(C(F)(F)F)c2)cn1
223 to 225 °C
O=C(c1cc2c(OC[C@@H](O)CN3CCC(c4ccc5ccccc5c4)CC3)cccc2[nH]1)N1CCCC1
158 to 161 °C

Now for the compound whose melting point we want.
Exercise: Reported melting point, compound COc1ccc(CNC(=O)c2nccnc2N)cc1 : ____
Key: 93 to 95 °C

====

quantity kind: melting point

CC1(C)CC(=O)C(Cc2ccc(Cl)cc2)C(=O)C1
188 to 190 °C
COC(=O)/C=C/c1nc(C(=O)OC)ccc1OC
123 to 126 °C
CC(C)C(=O)NCCNC(=O)OC(C)(C)C
116 to 117 °C
CCC1C(C)=NN=C(c2ccccc2C)c2cc(OC)c(OC)cc21 (stereo unspecified)
170 to 171 °C
O=C(OCC(Cl)(Cl)Cl)ON1C(=O)CCC1=O
98 to 101 °C

Now for the molecule whose melting point we want.
Exercise: Reported melting point, molecule O=C(OCC1CC1)c1ncn2c1[C@@H]1CCCN1C(=O)c1ccccc1-2 : ____
Key: 189 to 190 °C

====

quantity kind: melting point

c1ccc(N2CCN3C(NN4CCOCC4)=Nc4ccccc4N3CC2)cc1
142 to 144 °C

Now for the molecule whose melting point we want.
Exercise: Reported melting point, molecule O=c1ccn(-c2cccc(C(F)(F)F)c2)nc1-c1c[nH]nc1-c1ccccc1 : ____
Key: 206 to 208 °C

====

quantity kind: melting point

CCOC(=O)c1ncn2c1CN(C)C(=O)c1c(F)cccc1-2
196 to 198 °C
Cc1c(-c2ccccc2)n(-c2cc([N+](=O)[O-])ccc2Cl)c(-c2ccccc2)cc1=O
277 to 279 °C
CCOc1ccc2[nH]c(=O)n(-c3ccc(C(C)C)cc3)c2c1
100 °C
O=[N+]([O-])c1ccc(-c2ccc(-c3ccc([N+](=O)[O-])cc3C(F)(F)F)o2)c(C(F)(F)F)c1
158 to 159 °C

Exercise: Reported melting point, compound CCCCCCCCCCCCCCCCCC(=O)ON1C(C)(C)CC(OC(=O)c2ccccc2)CC1(C)C : ____
Key: 85 to 89 °C

====

Quick list: melting point per entry.

Exercise: Reported melting point, molecule Cc1cccc(C(=O)O)c1-c1ccc(C(F)(F)F)cc1 : ____
Key: 202 to 203 °C

Exercise: Consider next the molecule CC(C)(Oc1ccc(Cl)cc1)c1ccnc2ncnn12 in the same way.
Key: 132 to 135 °C

Exercise: Consider next the molecule CC(n1ncnn1)C(O)(c1ccc(OC(F)(F)F)cc1)c1ccc(OC(F)(F)F)cc1 (stereo not given) in the same way.
Key: 55 to 58 °C

Exercise: Consider next the molecule CC(=O)c1ccc(OC(=O)c2c3ccccc3nc3ccccc23)cc1 in the same way.
Key: 214 to 215 °C

====

Quick list: melting point per entry.

Recorded results for 4 molecules are shown here.
O=C(O)C(=O)Nc1coc2ccc(Cl)cc2c1=O
213 to 215 °C
N#COc1ccc(C=CC(=O)c2ccc(OC#N)cc2)cc1
171 to 173 °C
COC(=O)c1nc(-c2ccc(Cl)cc2)c(F)c(N)c1OC
93 to 94 °C
CCOC(=O)Cc1nsc2ccc(-n3c(=O)cc(C(F)(F)F)n(C)c3=O)cc12
150 to 152 °C

Exercise: Reported melting point, molecule Cc1ccc(S(=O)(=O)Oc2ccc(CN3CCOCC3)nc2)cc1 : ____
Key: 68 to 69 °C

Exercise: Consider next the molecule CC(C)Sc1cc2c(cc1Cl)N=CNS2(=O)=O in the same way.
Key: 231 to 232 °C

Exercise: Consider next the molecule CC(Nc1cc(Cl)nc(SCC(=O)O)n1)c1ccc(Cl)cc1 (centres undefined) in the same way.
Key: 155 to 160 °C

Exercise: Consider next the molecule Cc1cccc(C2CCN(C(=O)CCC(=O)c3ccc4c(c3)CCN(C(=O)C(F)(F)F)CC4)CC2)c1 in the same way.
Key: 128 to 129 °C

Exercise: Consider next the molecule CCOC(=O)c1cc(Cl)c(Cl)c(-c2cc(C)no2)c1C in the same way.
Key: 86 to 88 °C

Exercise: Consider next the molecule OCCN1CCC(=C2c3ccccc3CCn3ncnc32)CC1 in the same way.
Key: 154 °C

Exercise: Consider next the molecule Cc1csc(-c2ccc(C3=NNC(=O)CC3)cc2)n1 in the same way.
Key: 266 to 267 °C

Exercise: Consider next the molecule COc1cccc2c(CC(=O)OCC(=O)CCc3ccccc3)coc12 in the same way.
Key: 68 to 69 °C

Exercise: Consider next the molecule Cc1cc(C2CCN(S(=O)(=O)C3(C(=O)NO)CCOCC3)CC2)ccc1-c1cccc(OC[C@H](O)CO)c1 in the same way.
Key: 141 to 145 °C

Exercise: Consider next the molecule O=C(O)CCC1(c2cccs2)SCCS1 in the same way.
Key: 55 to 64 °C

Exercise: Consider next the molecule CS(=O)(=O)c1ccc(-c2cc(CCCC(=O)O)nn2-c2ccc(C(F)(F)F)cc2)cc1 in the same way.
Key: 155 to 156 °C

Exercise: Consider next the molecule COC(=O)CCc1cc(-n2nc3ccc(Br)cc3n2)c(O)c(C(C)(C)C)c1 in the same way.
Key: 116 to 118 °C

Exercise: Consider next the molecule CC(C)(C)c1cc2c(c(C(C)(C)C)c1)OC(=O)C2c1ccc(C#N)cc1 (centres undefined) in the same way.
Key: 136 to 137 °C

Exercise: Consider next the molecule Cc1ccc(-c2ccc3c(c2)C=C(C(=O)Nc2ccc(CSc4ccccc4)cc2)CCO3)cc1 in the same way.
Key: 176 to 177 °C

Exercise: Consider next the molecule Cc1nnnn1C(C=CC=O)=C(c1ccc(F)cc1)c1ccc(F)cc1 in the same way.
Key: 72 to 78 °C

Exercise: Consider next the molecule N#CN=C(NCc1ccccn1)Nc1cccc(-c2cccc(S(=O)(=O)NC(CC(=O)O)c3ccccc3)c2)c1 (centres undefined) in the same way.
Key: 90 °C

Exercise: Consider next the molecule CC[C@H]1[C@H](O)CC(=O)N1c1ccc(C#N)c(C(F)(F)F)c1 in the same way.
Key: 111 to 112 °C

Exercise: Consider next the molecule CCc1n[nH]c2c1nc(-c1cccnc1)c1ccccc12 in the same way.
Key: 219 to 220 °C

Exercise: Consider next the molecule CC(=O)NCCC1CCc2c(F)cc3nn(C)cc3c21 (centres undefined) in the same way.
Key: 116 to 119 °C
